IC50 for assorted compounds
# assay-system: 3-hydroxy-3-methylglutaryl-coenzyme A reductase (Homo sapiens)
# Sequence (P04035 whole entry): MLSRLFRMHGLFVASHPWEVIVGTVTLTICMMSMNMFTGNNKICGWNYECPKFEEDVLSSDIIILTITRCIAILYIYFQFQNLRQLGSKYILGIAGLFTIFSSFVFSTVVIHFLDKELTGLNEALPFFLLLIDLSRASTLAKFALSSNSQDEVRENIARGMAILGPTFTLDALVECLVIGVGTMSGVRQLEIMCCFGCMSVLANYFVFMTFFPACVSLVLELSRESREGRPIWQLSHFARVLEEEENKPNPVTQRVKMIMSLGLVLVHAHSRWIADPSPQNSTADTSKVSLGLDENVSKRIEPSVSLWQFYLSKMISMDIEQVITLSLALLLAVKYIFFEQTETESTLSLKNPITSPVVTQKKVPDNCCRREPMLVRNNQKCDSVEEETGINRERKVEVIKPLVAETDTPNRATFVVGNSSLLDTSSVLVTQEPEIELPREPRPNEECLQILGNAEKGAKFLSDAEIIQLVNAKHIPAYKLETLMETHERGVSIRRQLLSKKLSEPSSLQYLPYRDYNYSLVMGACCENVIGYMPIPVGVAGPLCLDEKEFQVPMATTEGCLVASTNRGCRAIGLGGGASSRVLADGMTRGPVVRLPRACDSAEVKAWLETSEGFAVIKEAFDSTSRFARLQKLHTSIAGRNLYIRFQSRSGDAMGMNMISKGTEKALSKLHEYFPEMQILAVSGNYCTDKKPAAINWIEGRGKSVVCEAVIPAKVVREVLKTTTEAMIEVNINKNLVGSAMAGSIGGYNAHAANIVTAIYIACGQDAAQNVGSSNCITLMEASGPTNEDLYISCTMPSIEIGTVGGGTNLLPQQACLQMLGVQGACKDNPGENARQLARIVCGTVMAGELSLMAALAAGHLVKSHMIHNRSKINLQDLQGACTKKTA
The answer is to be given in nM; state only the numeric part.

These solved cases illustrate the format of a correct answer.
CC(C)n1c(/C=C/C(O)CC(O)CC(=O)O)c(-c2ccc(F)cc2)c2ccccc21 (stereo not given) ... 28
CC(C)c1cc(-c2ccc(F)cc2)c(-c2cccc(Br)c2)n1/C=C/[C@@H](O)C[C@@H](O)CC(=O)O ... 7.16
CC(C)c1cc(-c2ccccn2)c(-c2ccc(F)cc2)n1/C=C/[C@@H](O)C[C@@H](O)CC(=O)O ... 8.7

Quickly give me recorded IC50 for CC(C)c1nc(-c2ccc(F)cc2)c(-c2ccc(F)cc2)n1/C=C/[C@H](O)C[C@@H](O)CC(=O)O 5.7

Quickly give me recorded IC50 for CC(C)(C)c1nc(-c2ccc(F)cc2)c(-c2ccc(F)cc2)n1/C=C/[C@@H](O)C[C@@H](O)CC(=O)O 8.15
